Cited source: PubChem BioAssay (NCI)

test: NCI Yeast Anticancer Drug Screen. Data for the mec2-1 strain (AID 157); settings: S. cerevisiae mec2-1 strain, at 5.0 µM (retest, dose inferred, filed as 0.5)
About 79,000 compounds went through this panel and 15% of them were active in at least one assay; those are over-represented in the sample as a whole. The source made the active and inactive calls. No stated cut-off is given here; in the data, active means growth inhibition above about 70%; inactive means the rest.
// allowed return values: label 1 for active, label 0 for inactive

Query string: For this molecule, state the assay outcome: C/C=C/c1ccc(OCC(=O)O)c(OC)c1
Result string: label 0

Query string: For this molecule, state the assay outcome: C=C1C(=O)O[C@@H]2C[C@@]3(C)CCC[C@H](C)C3=C[C@H]12 (tested in a mixture with another compound)
Result string: label 0

Query string: For this molecule, state the assay outcome: O=C1c2ccccc2C(=O)N1/N=C\c1ccccc1[N+](=O)[O-]
Result string: label 0

Query string: For this molecule, state the assay outcome: c1ccc(CCCCc2ccncc2)cc1
Result string: label 0

Query string: For this molecule, state the assay outcome: O=C(O)C1OC(Oc2ccc3oc4ccccc4c(=O)c3c2)C(O)C(O)C1O (centres undefined)
Result string: label 0

Query string: For this molecule, state the assay outcome: O=C1/C(=C\c2ccccc2)CN(C(=O)CCN2CCCCC2)C/C1=C/c1ccccc1
Result string: label 0

Query string: For this molecule, state the assay outcome: O=C(Nc1ccccc1[N+](=O)[O-])/C(=N/Nc1cccc(Cl)c1)c1c(O)c2ccccc2oc1=O
Result string: label 0

Query string: For this molecule, state the assay outcome: CN(C)CCCSc1c2ccccc2nc2cc(NCC(=O)Nc3ccccc3-c3ccccc3NC(=O)CNc3ccc4c(SCCCN(C)C)c5ccccc5nc4c3)ccc12
Result string: label 0

Query string: For this molecule, state the assay outcome: O=[N+]([O-])c1ccccc1C(c1ccc2ccccc2c1O)N1CCOCC1 (centres undefined)
Result string: label 1
